- Measured target: HTRA1 (full) (human, UniProt Q92743 23-480)
- Sequence (Q92743 23-480): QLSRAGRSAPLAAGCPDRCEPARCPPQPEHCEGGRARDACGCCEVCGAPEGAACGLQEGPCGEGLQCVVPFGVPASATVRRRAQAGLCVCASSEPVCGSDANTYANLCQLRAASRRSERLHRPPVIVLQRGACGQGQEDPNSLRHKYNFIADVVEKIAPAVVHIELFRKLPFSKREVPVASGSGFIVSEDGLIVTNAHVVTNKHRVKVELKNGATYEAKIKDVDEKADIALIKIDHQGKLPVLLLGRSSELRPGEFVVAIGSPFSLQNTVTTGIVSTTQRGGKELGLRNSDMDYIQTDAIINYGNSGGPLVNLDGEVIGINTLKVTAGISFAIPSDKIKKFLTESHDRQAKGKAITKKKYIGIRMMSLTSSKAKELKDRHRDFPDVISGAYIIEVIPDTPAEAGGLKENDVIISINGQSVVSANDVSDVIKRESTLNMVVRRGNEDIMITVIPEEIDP
- Method description: cell-based or functional assay
So basically, if IC50 (nM) for HTRA1 (full), decomposition rate of substrate peptide H2-Opt comes in under 30 nM it's true (1), and if it's 30 nM or more it's false (0).

| Binder | Assigned class |
| --- | --- |
| peptide derivative H322AT (designed binder) DPQFGLFSKYRTPNCSQHEGMACYALYEPVCGSDMSTYANECTLCMKIREGGHNIKIIRNGPCGG | true (1) |
| peptide H223 (designed binder) DPQFGLFSKYRTPNCTMDMGMACWAFYEPVCGSDMSTYANECTLCMKIREGGHNIKIIRNGPCGG | false (0) |
| peptide H322 (designed binder) DPQFGLFSKYRTPNCSQHEGMACYALYEPVCGSDMSTYVNECALCMKIREGGHNIKIIRNGPCGG | true (1) |
| peptide derivative H308AT (designed binder) DPQFGLFSKYRTPNCSDHAGMACVALYEPVCGSDMSTYANECTLCMKIREGGHNIKIIRNGPCGG | false (0) |
| peptide H308 (designed binder) DPQFGLFSKYRTPNCSDHAGMACVALYEPVCGSDMSTYENECVLCMKIREGGHNIKIIRNGPCGG | true (1) |
| peptide H321 (designed binder) DPQFGLFSKYRTPNCSDFDGMACYAFYEPVCGSDMSTYMNECALCMKIREGGHNIKIIRNGPCGG | true (1) |
| peptide H228 (designed binder) DPQFGLFSKYRTPNCGHYNGWACQAFFEPVCGSDMSTYANECTLCMKIREGGHNIKIIRNGPCGG | false (0) |

Every entry's value here was drawn from patent US20200377573A1.
